- Tested on: CAKI-1
- procedure_details: NCI tumour cell line growth inhibition, 48 h
Activity calls are given as the source filed them. No stated cut-off is given here; in the data, active = GI50 up to about 1.1 µM and inactive = higher.
Classes used: active, inactive

compound: C=C1C(=O)O[C@@H]2C[C@@H](C)[C@@H]3C=CC(=O)[C@@]3(C)[C@@H](OC(=O)CCCC(=O)O[C@H]3[C@@H]4C(=C)C(=O)O[C@@H]4C[C@@H](C)[C@@H]4C=CC(=O)[C@]43C)[C@H]12
tested_target: CAKI-1
assigned_category: active

compound: Cc1cccc(C)c1N1C(=O)C(=O)C(c2nc3ccccc3s2)/C(=N\N)C1=O (stereo not drawn)
tested_target: CAKI-1
assigned_category: inactive

compound: Cc1ccc2c(=O)c(-c3n[nH]c(=S)s3)c[nH]c2n1
tested_target: CAKI-1
assigned_category: inactive

compound: Cc1cc(OCC(=O)N/N=C/C(Br)=C/c2ccccc2)nc(SCC(=O)N/N=C/C(Br)=C/c2ccccc2)n1
tested_target: CAKI-1
assigned_category: inactive

compound: O=C1C=C2CCCC2C(C(=O)O)(C(=O)O)C1 (stereo not drawn)
tested_target: CAKI-1
assigned_category: inactive

compound: COC(=O)C(Cc1nc2ccc(Cl)cc2nc1O)/C(=N\N)C(=O)Nc1cc(C)c(Cl)cc1S(=O)(=O)O (stereo not drawn)
tested_target: CAKI-1
assigned_category: inactive

compound: OC(CCN1CCN(CCOC(c2ccccc2)c2ccccc2)CC1)c1ccc(Br)cc1 (stereo not drawn)
tested_target: CAKI-1
assigned_category: inactive

compound: COC1=Nc2ccccc2S(=O)(=O)C=C1
tested_target: CAKI-1
assigned_category: inactive

compound: CC(C)=CC(=O)CC(=O)C(=O)NCCNC(=O)C(=O)CC(=O)C=C(C)C
tested_target: CAKI-1
assigned_category: inactive

compound: O=c1[nH]c2nccn2c(Cl)c1Br
tested_target: CAKI-1
assigned_category: inactive

compound: O=C(/C=C/c1ccccc1)CC(=O)CCC(=O)Nc1ccc(Cl)cc1
tested_target: CAKI-1
assigned_category: inactive

compound: CC(C)CC(NC(=O)C(C)(CI)Cc1ccccc1)C(=O)Nc1ccccc1 (stereo not drawn)
tested_target: CAKI-1
assigned_category: inactive

compound: O=C(CCc1cccc(O)c1)NCCc1cccc(O)c1
tested_target: CAKI-1
assigned_category: inactive

compound: O=C1C[C@@H]2[C@@H](C=CC23CCCC3)N1O
tested_target: CAKI-1
assigned_category: inactive

compound: C/C=C/C(C#N)(Cc1ccccc1)OP1(=O)OC(c2ccccc2)C(C)N1C (stereo not drawn)
tested_target: CAKI-1
assigned_category: inactive

compound: COc1cc2c3cc1Oc1c(OC)c(OC)cc4c1C(Cc1ccc(O)c(c1)-c1cc(ccc1OC)CC3N(C)CC2)N(C)CC4 (stereo not drawn)
tested_target: CAKI-1
assigned_category: inactive

compound: CC(Nc1ccc(Cl)cc1)c1ccncc1 (stereo not drawn)
tested_target: CAKI-1
assigned_category: inactive

compound: NC(CCCCO)C(=O)O (stereo not drawn)
tested_target: CAKI-1
assigned_category: inactive

compound: CC(C)(C)N/N=C(\C(=O)Nc1ccc([N+](=O)[O-])cc1[N+](=O)[O-])c1nc2ccc([N+](=O)[O-])cc2nc1O
tested_target: CAKI-1
assigned_category: inactive

compound: C/C(=N\NC(=S)N1CCCCC1)c1cccc(C)n1
tested_target: CAKI-1
assigned_category: active

compound: CC(C)C(=O)N[C@@H](C)C(=O)N(Cc1ccc2ccccc2c1)N=O
tested_target: CAKI-1
assigned_category: inactive

compound: CCOC(=O)c1c(C)cc(=O)n2c1[nH]c1ccccc12
tested_target: CAKI-1
assigned_category: inactive

compound: Cc1cccc(/C=N/NC(=S)NCc2ccccn2)n1
tested_target: CAKI-1
assigned_category: inactive

compound: O=C(CP(=O)(c1ccccc1)c1ccccc1)c1cccc(C(=O)CP(=O)(c2ccccc2)c2ccccc2)c1
tested_target: CAKI-1
assigned_category: inactive

compound: CCOC(=O)C(NC(=O)c1ccccc1)(Nc1ccc(S(=O)(=O)Nc2nc(C)cc(C)n2)cc1)C(F)(F)F (stereo not drawn)
tested_target: CAKI-1
assigned_category: inactive

compound: Cn1c(C2CCCc3c2c2ccccc2n3C)cc2ccccc21 (stereo not drawn)
tested_target: CAKI-1
assigned_category: inactive

compound: Oc1c(C(Nc2cccc3cccnc23)c2ccccc2)ccc2cccnc12 (stereo not drawn)
tested_target: CAKI-1
assigned_category: inactive

compound: CCCc1c2c3ccccc3nc-2nc2ccccn12
tested_target: CAKI-1
assigned_category: inactive

###

- Tested on: ACHN
- procedure_details: NCI tumour cell line growth inhibition, 48 h
Active and inactive are the calls of the source. Rule as the data show it: active = GI50 up to about 1.1 µM and inactive = higher.

compound: COc1ccc(N2C(=O)C3c4[nH]c5ccc(C)cc5c4C4CCC(C(C)C)CC4C3C2=O)cc1 (configuration not stated)
GI50: > 100 µM (inactive)

compound: O=C1C=CC(=O)C(CNc2ccc(C(=O)OC34CC5CC(CC(C5)C3)C4)cc2)=C1Br
GI50: 14.6 µM (inactive)

compound: COC(=O)c1cc2ccccc2c2nc3ccccc3c(Cl)c12
GI50: > 100 µM (inactive)

compound: CCC(C)(O)c1cn(-c2ccc(S(=O)(=O)O)cc2)nn1 (configuration not stated)
GI50: > 100 µM (inactive)

compound: COC(=O)C1=C(O)C(C(=O)OC)[C@]2(O)[C@H](C(=O)OC)[C@H]1C[C@@H](c1ccc([N+](=O)[O-])cc1)[C@H]2C(=O)OC (some centres not stated)
GI50: 18.1 µM (inactive)

compound: CCOC(=O)CCC(NC(=O)OCc1ccccc1)C(=O)NC(CCC(=O)OCC)C(=O)NC(CCC(=O)OCC)C(=O)NNC(=O)OC(C)(C)C (configuration not stated)
GI50: > 100 µM (inactive)

compound: O=C(CP(=O)(c1ccccc1)c1ccccc1)c1cccc(C(=O)CP(=O)(c2ccccc2)c2ccccc2)c1
GI50: > 100 µM (inactive)

compound: N#Cc1c(N)nc(Nc2cccc3ccccc23)c(C#N)c1C#N
GI50: 4.78 µM (inactive)

compound: CN1CCN(c2nc(N)c(Br)c(Cl)n2)CC1
GI50: > 100 µM (inactive)

compound: C/C=C/C(O)P(=O)(OC)OC (configuration not stated)
GI50: 0.344 µM (active)

compound: c1csc(-c2csc(-c3cccs3)c2)c1
GI50: > 100 µM (inactive)

compound: Cc1ccc(C(=O)N/N=C(\N=N\c2ccc(C(=O)O)cc2)c2ccc(N(CCC#N)CCC#N)cc2C)cc1
GI50: > 100 µM (inactive)

compound: CC(N)Cc1cccc(C(F)(F)F)c1 (configuration not stated)
GI50: > 100 µM (inactive)

compound: O=C(NNC(=S)NCc1ccccc1)c1csc(NC(=S)NC2CCCCC2)n1
GI50: 38.2 µM (inactive)

compound: Cc1ccn2c(=O)cc(-c3ccccc3)nc2c1
GI50: 71.1 µM (inactive)

compound: CC(=O)/C(=C\Nc1c(C)n(C)n(C)c1=O)C(=O)c1ccccc1
GI50: > 50 µM (inactive)

compound: CCOC(=O)C1=C(N)N(c2ccccc2)/C(=C2\SC(=S)N(c3ccc(C)cc3)C2=O)S1
GI50: 76 µM (inactive)

compound: O=C1C(Cl)C(c2cccc([N+](=O)[O-])c2)N1n1cnc2ccccc2c1=O (configuration not stated)
GI50: > 100 µM (inactive)

compound: OCCSCC/C(=N\N=C(/CCSCCO)c1ccccc1)c1ccccc1
GI50: 74.5 µM (inactive)

compound: O=c1ssc(Cl)c1Nc1c(Cl)ssc1=O
GI50: > 40 µM (inactive)

compound: C/C=C(/C)C(=O)O[C@H]1[C@H](O)CC(c2ccc3c(c2O)C(=O)C2=C(O)C4(OC)C(=O)C(C(N)=O)=C(O)[C@H](CC(=O)c5ccccc5O)C4CC2[C@@]3(C)OC)O[C@@H]1C (some centres not stated)
GI50: 0.00418 µM (active)

compound: CC(C)CC(=O)NC(C(=O)NC(C(=O)NC(CC(C)C)C(O)CC(=O)NC(C)C(=O)NC(CC(C)C)C(O)CC(=O)O)C(C)C)C(C)C (configuration not stated)
GI50: > 100 µM (inactive)

compound: CCCC(=O)C(CC)/C(CCC(=O)N(Cc1ccccc1)Cc1ccccc1)=N/NC(=O)C[N+](C)(C)C (configuration not stated)
GI50: > 100 µM (inactive)

compound: Cc1ccc(-c2n[nH]c(=O)n2/N=C\c2ccccc2)cc1
GI50: 50.6 µM (inactive)

compound: O=C(O)c1ccccc1CC1Cc2cc3c(cc2C1)CCC3
GI50: > 100 µM (inactive)

compound: OCCCSCCO
GI50: > 100 µM (inactive)

compound: NC1CCCCC1.O=C(O)C(CP(=O)(O)O)=C(Cl)Cl
GI50: > 100 µM (inactive)

compound: CC(=O)C1=C(C)NC(=C(C#N)C#N)C(C#N)=C1
GI50: > 100 µM (inactive)

compound: CCCn1c(SC)nc(COC(=O)NC)c1COC(=O)NC
GI50: > 100 µM (inactive)

compound: COC(=O)CCC(C)[C@H]1CCC2C3CC[C@@H]4CC5(CC[C@]4(C)C3C[C@H](OC(C)=O)[C@@]21C)OOC1(CCCCC1)OO5 (some centres not stated)
GI50: 8.32 µM (inactive)

compound: C/C(=C1/CCCC2(N=NCC2c2ccccc2)C1=O)c1ccccc1 (configuration not stated)
GI50: 31.8 µM (inactive)

compound: CC1=NN(c2nc(N)nc(/C(C#N)=C\c3csc([N+](=O)[O-])c3)n2)C(C)(C)C1
GI50: 35 µM (inactive)
